Molecular target: T1, DRH-3 CTD (Caenorhabditis elegans, UniProt Q93413 940-1108)
T1 sequence: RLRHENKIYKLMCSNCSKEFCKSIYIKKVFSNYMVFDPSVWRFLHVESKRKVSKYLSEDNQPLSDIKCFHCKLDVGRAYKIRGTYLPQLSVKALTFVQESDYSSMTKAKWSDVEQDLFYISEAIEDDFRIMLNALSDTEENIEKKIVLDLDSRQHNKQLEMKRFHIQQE
Experiment: fluorescence polarization
observed property: pKd
Answer as the number alone; pKd is minus log10 of concentration in mol/L.

Query :: Could you share which pKd value was measured for UUUAUAUAUUAGGACCGCUCGGCGGUCCUAAUAUAUAAA (structured_RNA, 5'-OH) [FAM-labelled 5'-OH 18-mer hairpin RNA] ?
Result :: 6.49
